Value source: patent US11319299B2

test_target: WDR5 (Homo sapiens (Human))
procedure_summary: Surface Plasmon Resonance (SPR) assay, KD and residence time
Assay type: binding
stated_conditions: surface plasmon resonance (SPR); read-out: WDR5 binding affinity (KD)
Method: (i) Surface Plasmon Resonance (SPR) Assay The lifetime of a drug on its target is determined by two rate constants: the association rate constant (kon) and the dissociation rate constant (koff). […] Drug-target residence time is defined as the reciprocal of koff (τ=1/koff), making the residence time a parameter that is easily measured by routine in vitro assay methods.
Response field label: string, one of True (Kd strictly below 3 nM) or False.

>  <molecule>
CC1CN(c2cc(F)c(-c3ccc(N4CCOCC4)c(F)c3)cc2NC(=O)c2cn(C)c(=O)cc2C(F)F)CCN1C (stereo in doubt) [Example 478]

>  <label_value>
False

$$$$

Lab note: Kd threshold 3 nM. Does this molecule come in strictly under it? C[C@@H]1CN(c2cc(F)c(-c3ccc(N4CCOCC4)nc3)cc2NC(=O)c2ccc(F)cc2C(F)(F)F)C[C@H](C)N1C [Example 547] True

Dear colleague, could you confirm whether Kd of C[C@@H]1CN(c2cc(F)c(-c3nc(C(=O)N(C)CC4CC4)cs3)cc2NC(=O)c2c[nH]c(=O)cc2C(F)(F)F)C[C@H](C)N1C [Example 483] falls below 3 nM? Thanks. False

Bench note: check whether C[C@@H]1CN(c2cc(F)c(C3=CCCN(c4ncc(C#N)s4)C3)cc2NC(=O)c2c[nH]c(=O)cc2C(F)(F)F)C[C@H](C)N1C [Example 615] shows Kd below 3 nM True

Consider CC1CN(c2cc(F)c(C3=CCCN(C(=O)OC4CC(F)(F)C4)C3)cc2NC(=O)c2ccc(F)cc2C(F)(F)F)CCN1C (stereo in doubt) [Example 706] . Does its Kd lie strictly below 3 nM? False

Dear reviewer, please state whether C[C@@H]1CN(c2cc(F)c(C3=CCCN(C(=O)OC4(C)COC4)C3)cc2NC(=O)c2c[nH]c(=O)cc2C(F)(F)F)C[C@H](C)N1C [Example 489] has Kd strictly beneath 3 nM. True
